Origin of the recorded values: patent US6096749A

- systemTested: EGF-R ICD (Homo sapiens, UniProt P00533)
- Construct: recombinant intracellular domains of the EGF-receptor (EGF-R ICD)
- Sequence (P00533 669-1210 limits assumed): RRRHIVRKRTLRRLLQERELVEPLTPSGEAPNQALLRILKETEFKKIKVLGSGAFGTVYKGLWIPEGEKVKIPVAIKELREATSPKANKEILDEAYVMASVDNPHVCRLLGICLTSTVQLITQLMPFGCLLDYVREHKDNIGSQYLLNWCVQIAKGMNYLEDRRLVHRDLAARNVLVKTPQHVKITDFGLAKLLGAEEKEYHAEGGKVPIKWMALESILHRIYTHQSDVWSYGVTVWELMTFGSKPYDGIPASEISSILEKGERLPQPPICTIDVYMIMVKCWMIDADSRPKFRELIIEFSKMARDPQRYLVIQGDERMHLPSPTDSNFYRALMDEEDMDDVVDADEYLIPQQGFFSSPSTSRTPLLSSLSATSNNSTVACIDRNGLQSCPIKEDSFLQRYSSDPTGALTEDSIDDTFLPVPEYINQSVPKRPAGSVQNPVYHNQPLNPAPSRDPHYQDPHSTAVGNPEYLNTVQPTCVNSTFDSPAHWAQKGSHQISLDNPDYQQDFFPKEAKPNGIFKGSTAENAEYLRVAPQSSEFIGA
- experiment: Inhibitory action on EGF-R ICD (intracellular domains of the EGF receptor) tyrosine protein kinase, Test A
- Format: biochemical
- conditionParameters: concentration at which inhibition is half the maximum inhibition; Examples 16 to 22; read-out: IC50 (Test A: inhibitory action on EGF-R ICD)
pIC50: −log10 of the molar value.
Reported pIC50 values follow for various compounds
experimentalReadout: pIC50

INSERT INTO assay_data (compound, reportedvalue) VALUES
  ('Cc1[nH]c2ncnc(Nc3ccc(F)cc3)c2c1C [Example 20]', 6.25),
  ('Cc1[nH]c2ncnc(Nc3ccccc3F)c2c1C [Example 19]', 5.80),
  ('Cc1[nH]c2ncnc(Nc3ccc(Cl)c(Cl)c3)c2c1C [Example 18]', 7.15),
  ('Cc1ccc(Nc2ncnc3[nH]c(C)c(C)c23)cc1 [Example 17]', 5.72),
  ('Cc1ccc(Nc2ncnc3[nH]c4c(c23)CCCC4)cc1 [Example 22]', 6.96);

###

- systemTested: EGF-R ICD (Homo sapiens, UniProt P00533)
- Construct: recombinant intracellular domains of the EGF-receptor (EGF-R ICD)
- experiment: Inhibitory action on EGF-R ICD (intracellular domains of the EGF receptor) tyrosine protein kinase, Test A
- Type: biochemical
- conditionParameters: Example 32, table 3; concentration at which inhibition is half the maximum inhibition; read-out: IC50 (inhibitory action on the intracellular domains of EGF-R (ICD))
Just a reminder that ties go to n: only IC50 strictly below 50 nM counts as y.

INSERT INTO results (smilesstring, systemtested, categorylabel) VALUES
  ('COc1ccc(OC)c(-c2cc3c(Nc4cccc(Cl)c4)ncnc3[nH]2)c1', 'EGF-R ICD (Homo sapiens, UniProt P00533)', 'y'),
  ('Cc1[nH]c2ncnc(Nc3cccc(Br)c3)c2c1C', 'EGF-R ICD (Homo sapiens, UniProt P00533)', 'y'),
  ('Cc1cccc(Nc2ncnc3[nH]c4c(c23)CCCC4)c1', 'EGF-R ICD (Homo sapiens, UniProt P00533)', 'n'),
  ('FC(F)(F)c1cccc(Nc2ncnc3[nH]c4c(c23)CCCC4)c1', 'EGF-R ICD (Homo sapiens, UniProt P00533)', 'n'),
  ('COc1cccc(-c2cc3c(Nc4cccc(Cl)c4)ncnc3[nH]2)c1', 'EGF-R ICD (Homo sapiens, UniProt P00533)', 'n'),
  ('Fc1cccc(Nc2ncnc3[nH]c4c(c23)CCCC4)c1', 'EGF-R ICD (Homo sapiens, UniProt P00533)', 'n'),
  ('Cc1[nH]c2ncnc(Nc3cccc(F)c3)c2c1C', 'EGF-R ICD (Homo sapiens, UniProt P00533)', 'n'),
  ('COc1ccc(-c2[nH]c3ncnc(Nc4cccc(Cl)c4)c3c2C)cc1', 'EGF-R ICD (Homo sapiens, UniProt P00533)', 'n'),
  ('COc1cccc(Nc2ncnc3[nH]c4c(c23)CCCC4)c1', 'EGF-R ICD (Homo sapiens, UniProt P00533)', 'n'),
  ('COc1ccc(-c2cc3c(Nc4cccc(Cl)c4)ncnc3[nH]2)cc1', 'EGF-R ICD (Homo sapiens, UniProt P00533)', 'y'),
  ('Cc1cccc(Nc2ncnc3[nH]c(C)c(C)c23)c1', 'EGF-R ICD (Homo sapiens, UniProt P00533)', 'n'),
  ('Cc1[nH]c2ncnc(Nc3cc(Cl)cc(Cl)c3)c2c1C', 'EGF-R ICD (Homo sapiens, UniProt P00533)', 'n'),
  ('COc1ccccc1-c1cc2c(Nc3cccc(Cl)c3)ncnc2[nH]1', 'EGF-R ICD (Homo sapiens, UniProt P00533)', 'y'),
  ('Brc1cccc(Nc2ncnc3[nH]c4c(c23)CCCC4)c1', 'EGF-R ICD (Homo sapiens, UniProt P00533)', 'y'),
  ('Clc1cccc(Nc2ncnc3[nH]c(-c4ccccc4)cc23)c1', 'EGF-R ICD (Homo sapiens, UniProt P00533)', 'y'),
  ('Clc1ccc(Nc2ncnc3[nH]c4c(c23)CCCC4)cc1Cl', 'EGF-R ICD (Homo sapiens, UniProt P00533)', 'n');
